Test: Cytotoxicity against MDCK cells by MTT assay
Format: cell-based, Canis lupus familiaris
Conditions: dog
Flag rule - CC50 less than 40 µM flags Yes; the remaining entries get No.

molecule	assigned category
O=c1cc(-c2ccc(O)c(O)c2)oc2cc(O[C@@H]3O[C@H](CO)[C@@H](O)[C@H](O)[C@H]3O)cc(O)c12	No
COc1c(O)cc2oc(-c3ccc(O)cc3)cc(=O)c2c1O	No
O=c1cc(-c2ccc(O)c(O)c2)oc2cc(O)cc(O)c12	Yes
O=C1/C(=C\c2ccc(O)cc2)Oc2cc(O)ccc21	No
CCC(CC)O[C@@H]1C=C(C(=O)O)C[C@H](N)[C@H]1NC(C)=O [OSELTAMIVIR CARBOXYLATE]	Yes
O=C1/C(=C/c2ccc(O)c(O)c2)Oc2cc(O)ccc21	Yes

Input: Given `NC(=O)c1ncn([C@@H]2O[C@H](CO)[C@@H](O)[C@H]2O)n1` , is recorded CC50 strictly lower than 40 µM?
Output: No

Input: Entry `O=c1c(-c2ccc(O)cc2)coc2cc(O)ccc12` please
Output: No

Input: Here is the next molecule: `O=C1/C(=C\c2ccc(O)cc2)Oc2cc(O)cc(O)c21`
Output: No

---

Target: Neuraminidase (Influenza A virus)
Sequence (B4URF0 whole entry): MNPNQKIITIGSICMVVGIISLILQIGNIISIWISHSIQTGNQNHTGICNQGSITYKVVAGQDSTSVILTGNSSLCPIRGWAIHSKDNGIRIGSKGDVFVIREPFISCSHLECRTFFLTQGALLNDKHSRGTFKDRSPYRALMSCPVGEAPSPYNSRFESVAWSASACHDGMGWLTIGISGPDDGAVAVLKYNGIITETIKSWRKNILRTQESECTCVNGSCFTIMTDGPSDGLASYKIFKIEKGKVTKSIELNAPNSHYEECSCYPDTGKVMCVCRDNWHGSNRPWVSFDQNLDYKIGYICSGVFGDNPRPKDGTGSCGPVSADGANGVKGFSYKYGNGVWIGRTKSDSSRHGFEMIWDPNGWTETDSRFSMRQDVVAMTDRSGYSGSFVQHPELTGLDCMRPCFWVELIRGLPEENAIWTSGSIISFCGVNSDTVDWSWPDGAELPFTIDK
recorded metric: IC50 (µM)
Report the figure in µM without appending any unit label.

Consider the reported IC50 for these compounds:
compound	system name	units	IC50
O=C1/C(=C\c2ccccc2)Oc2cc(O)ccc21	Neuraminidase (Influenza A virus)	µM	73.3
O=c1c(-c2ccc(O)cc2)coc2cc(O)ccc12 [DAIDZEIN]	Neuraminidase (Influenza A virus)	µM	26.6
O=c1cc(-c2ccccc2)oc2cc(O)cc(O)c12 [CHRYSIN]	Neuraminidase (Influenza A virus)	µM	33.4

Then this compound:
Input: May I ask what IC50 has been recorded for O=c1cc(-c2ccc(O)cc2)oc2cc(O)cc(O)c12 [APIGENIN] ?
Output: 28.9

---

Target: Neuraminidase (Influenza A virus)
Parameters: species or system Influenza A virus (A/Puerto Rico/8/1934(H1N1))
Quick reference: IC50 of the listed items.
Report the figure in µM without appending any unit label.

compound	IC50 (µM)
O=c1cc(-c2ccc(O)c(O)c2)oc2cc(O[C@@H]3O[C@H](CO)[C@@H](O)[C@H](O)[C@H]3O)cc(O)c12 [GALUTEOLIN]	47.4

Input: Checklist item: IC50 tested on Neuraminidase (Influenza A virus), entry `O=C1/C(=C\c2ccccc2)Oc2cc(O)ccc21` , value?
Output: 72

Input: What about this compound? O=c1cc(-c2ccc(O)c(O)c2)oc2cc(O)cc(O)c12 [LUTEOLIN]
Output: 33.7

Input: Would you kindly repeat that for O=c1c(-c2ccc(O)cc2)coc2cc(O)ccc12 [DAIDZEIN] ?
Output: 37.1

---

Measured pIC50 accompanies every entry in the list below.
Biological target: Neuraminidase (Influenza A virus)
Set-up: species or system Influenza B virus
Kindly note that pIC50 refers to -log10 of the concentration in mol/L and answer with the value alone.

Example entries and their recorded answers appear below.
compound structure	system name	pIC50
O=c1cc(-c2ccc(O)cc2)oc2c([C@@H]3O[C@H](CO)[C@@H](O)[C@H](O)[C@H]3O)c(O)cc(O)c12	Neuraminidase (Influenza A virus)	4.30
O=c1c(O)c(-c2ccc(O)c(O)c2)oc2cc(O)cc(O)c12	Neuraminidase (Influenza A virus)	4.17
O=C(O)[C@H]1O[C@@H](Oc2cc3oc(-c4ccc(O)cc4)cc(=O)c3c(O)c2O)[C@H](O)[C@@H](O)[C@@H]1O	Neuraminidase (Influenza A virus)	4.22
COc1cc(O)c2c(=O)c(O)c(-c3ccc(O)cc3)oc2c1	Neuraminidase (Influenza A virus)	4.21
O=c1cc(-c2ccccc2)oc2cc(O)cc(O)c12	Neuraminidase (Influenza A virus)	4.28

Input: # pIC50 lookup, item `O=c1c(-c2ccc(O)cc2)coc2cc(O)ccc12`
Output: 4.33

Input: Next up: `O=C1/C(=C\c2ccc(O)cc2)Oc2cc(O)ccc21`
Output: 4.64

---

Known IC50 of a selection of compounds
Target: Neuraminidase (Influenza A virus)
Set-up: species or system Influenza A virus (A/Puerto Rico/8/1934(H1N1))
Give your result in µM as a bare value.

Solved cases (3 shown):
compound	IC50, µM
O=C(O)[C@H]1O[C@@H](Oc2cc3oc(-c4ccc(O)cc4)cc(=O)c3c(O)c2O)[C@H](O)[C@@H](O)[C@@H]1O [SCUTELLARIN]	50.6
O=c1c(O)c(-c2ccc(O)cc2)oc2cc(O)cc(O)c12 [KAEMPFEROL]	58.6
O=C1/C(=C\c2ccc(O)cc2)Oc2cc(O)cc(O)c21	25.6

Input: # lookup: IC50 of O=c1c(O)c(-c2cc(O)c(O)c(O)c2)oc2cc(O)cc(O)c12 [MYRICETIN]
Output: 82.6

Input: And the next one, O=C1/C(=C/c2ccc(O)c(O)c2)Oc2cc(O)ccc21 [SULFURETIN] ?
Output: 29.6

Input: Record: O=c1cc(-c2ccc(O)cc2)oc2cc(O)cc(O)c12 [APIGENIN]
Output: 31.6

Input: One more compound: `O=C1/C(=C\c2ccc(O)cc2)Oc2cc(O)ccc21`
Output: 22

Input: Can you check COc1c(O)cc2oc(-c3ccc(O)cc3)cc(=O)c2c1O [HISPIDULIN] next?
Output: 46.3

Input: Another: O=c1c(-c2ccc(O)cc2)coc2cc(O)cc(O)c12 [GENISTEIN]
Output: 77.1

Input: How about this compound: COc1cc(O)c2c(=O)c(O)c(-c3ccc(O)cc3)oc2c1 [RHAMNOCITRIN]
Output: 51.5

Input: Repeat for the following compound: O=c1c(O)c(-c2ccc(O)c(O)c2)oc2cc(O)cc(O)c12 [QUERCETIN]
Output: 58.4

Input: Now this one: O=c1cc(-c2ccccc2)oc2cc(O)cc(O)c12 [CHRYSIN]
Output: 45.7

Input: Now try C[C@@H]1O[C@@H](OC[C@H]2O[C@@H](Oc3c(-c4ccc(O)c(O)c4)oc4cc(O)cc(O)c4c3=O)[C@H](O)[C@@H](O)[C@@H]2O)[C@H](O)[C@H](O)[C@H]1O [RUTIN] .
Output: 52.2

Input: Now consider O=c1cc(-c2ccc(O)cc2)oc2c([C@@H]3O[C@H](CO)[C@@H](O)[C@H](O)[C@H]3O)c(O)cc(O)c12 [VITEXIN] .
Output: 46.5

---

For reference, IC50 measured on Neuraminidase (Influenza A virus, UniProt B4URF0):
Output spec: scalar in µM, unitless text.

compound structure	IC50 [µM]
O=c1c(-c2ccc(O)cc2)coc2cc(O)cc(O)c12	134
O=C1/C(=C\c2ccc(O)cc2)Oc2cc(O)ccc21	22.1
O=C(O)[C@H]1O[C@@H](Oc2cc3oc(-c4ccc(O)cc4)cc(=O)c3c(O)c2O)[C@H](O)[C@@H](O)[C@@H]1O	47.3
O=c1c(O)c(-c2cc(O)c(O)c(O)c2)oc2cc(O)cc(O)c12	46.2
COc1cc(O)c2c(=O)c(O)c(-c3ccc(O)cc3)oc2c1	83.9
O=c1c(O)c(-c2ccc(O)c(O)c2)oc2cc(O)cc(O)c12	87.6
O=C1/C(=C/c2ccc(O)c(O)c2)Oc2cc(O)ccc21	51.2
C[C@@H]1O[C@@H](OC[C@H]2O[C@@H](Oc3c(-c4ccc(O)c(O)c4)oc4cc(O)cc(O)c4c3=O)[C@H](O)[C@@H](O)[C@@H]2O)[C@H](O)[C@H](O)[C@H]1O	87.7
O=c1c(O)c(-c2ccc(O)cc2)oc2cc(O)cc(O)c12	38.1
COc1c(O)cc2oc(-c3ccc(O)cc3)cc(=O)c2c1O	26

Input: Which IC50 is listed for `O=C1/C(=C\c2ccc(O)cc2)Oc2cc(O)cc(O)c21` ?
Output: 22.3

Input: How about `O=c1cc(-c2ccc(O)cc2)oc2c([C@@H]3O[C@H](CO)[C@@H](O)[C@H](O)[C@H]3O)c(O)cc(O)c12` ?
Output: 45.1

Input: What do you get for `O=c1cc(-c2ccc(O)c(O)c2)oc2cc(O[C@@H]3O[C@H](CO)[C@@H](O)[C@H](O)[C@H]3O)cc(O)c12` ?
Output: 52.2

Input: Then `O=c1cc(-c2ccc(O)c(O)c2)oc2cc(O)cc(O)c12` ?
Output: 32.6

---

Biological target: Neuraminidase (Influenza A virus)
Parameters: species or system Influenza B virus
recorded metric: pIC50
Please note pIC50 is a logarithmic value: minus log10 of concentration in mol/L. Answer with that number alone.

These recorded examples may help you get a feel for the data.
compound structure	pIC50
O=c1c(O)c(-c2cc(O)c(O)c(O)c2)oc2cc(O)cc(O)c12	4.12
O=C1/C(=C\c2ccccc2)Oc2cc(O)ccc21	4.06
O=C1/C(=C/c2ccc(O)c(O)c2)Oc2cc(O)ccc21	4.44
O=C1/C(=C\c2ccc(O)cc2)Oc2cc(O)cc(O)c21	4.60
O=c1cc(-c2ccc(O)cc2)oc2cc(O)cc(O)c12	4.34

Read the next record carefully.
Input: Which pIC50 value is on record for `COc1c(O)cc2oc(-c3ccc(O)cc3)cc(=O)c2c1O` ?
Output: 4.48
